assayed.target: AMP deaminase 2 (Homo sapiens, UniProt Q01433)
Sequence (Q01433 whole entry): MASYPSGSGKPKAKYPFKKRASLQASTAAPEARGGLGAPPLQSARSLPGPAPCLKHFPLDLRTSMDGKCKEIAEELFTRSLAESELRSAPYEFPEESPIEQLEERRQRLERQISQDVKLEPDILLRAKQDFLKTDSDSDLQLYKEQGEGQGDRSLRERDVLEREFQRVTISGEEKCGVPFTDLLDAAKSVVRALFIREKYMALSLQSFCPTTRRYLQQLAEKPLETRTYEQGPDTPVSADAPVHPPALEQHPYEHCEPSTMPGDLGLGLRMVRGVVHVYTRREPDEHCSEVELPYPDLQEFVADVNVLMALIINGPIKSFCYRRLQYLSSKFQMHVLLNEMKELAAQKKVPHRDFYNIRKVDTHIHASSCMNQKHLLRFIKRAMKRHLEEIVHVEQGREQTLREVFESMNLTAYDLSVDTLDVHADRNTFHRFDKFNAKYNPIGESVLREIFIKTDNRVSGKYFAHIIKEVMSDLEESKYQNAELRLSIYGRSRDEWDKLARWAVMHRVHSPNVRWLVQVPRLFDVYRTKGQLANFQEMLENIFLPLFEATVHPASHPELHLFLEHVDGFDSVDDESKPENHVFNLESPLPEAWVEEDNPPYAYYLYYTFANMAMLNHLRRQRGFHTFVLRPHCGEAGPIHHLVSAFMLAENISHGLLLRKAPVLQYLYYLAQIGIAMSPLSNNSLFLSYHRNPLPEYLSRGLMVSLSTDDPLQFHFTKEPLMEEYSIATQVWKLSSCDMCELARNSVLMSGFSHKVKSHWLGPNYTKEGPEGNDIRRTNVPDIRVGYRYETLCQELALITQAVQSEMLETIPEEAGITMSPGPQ
test.description: Inhibition of recombinant human AMPD2 using AMP as substrate incubated for 30 mins by spectrophotometric analysis
measure.name: IC50 (µM)

The following compounds have reported results that may help.
CC1(C)CN(C(N)=O)c2ccccc2N1Cc1ccccc1Cl | 21
Cc1cccc2c1N(Cc1ccccc1)C(C)(C)CN2C(N)=O | 5
CC1(C)CN(C(N)=O)c2ccc(F)cc2N1Cc1ccccc1 | 5.1
CC1(C)CN(C(N)=O)c2c(F)cccc2N1Cc1ccccc1 | 4
CC1(C)CN(C(N)=O)c2ccccc2N1Cc1cccc(OC(F)(F)F)c1 | 1.3
Cc1cccc(CN2c3ccccc3N(C(N)=O)CC2(C)C)c1 | 2.3

a. CC1(C)CN(C(N)=O)c2ccccc2N1Cc1ccc(OC(F)(F)F)cc1
b. CC(=O)N1CC(C)(C)N(Cc2ccccc2)c2ccccc21
Input line: Between a and b , which one shows the larger IC50 value? Write the label of whichever entry you select.
Output line: b
(b: 57 µM, a: 4.1 µM)

* * *

test.description: Ex vivo inhibition of AMPD2 in C57BL/6J mouse liver at 30 mg/kg, po administered for 1 hr
Format: functional
measure.name: inhibition in vivo at 30 mg/kg (%)
Use % as the unit, but write only the number.

Reference set, count: 2
CC(=O)Nc1ccc(OCc2ccc(CN3c4c(ccc(F)c4F)N(C(N)=O)CC3(C)C)cc2)cc1 | 19
CC1(C)CN(C(N)=O)c2ccc(F)c(F)c2N1Cc1ccc(COc2ccccc2)cc1 | 24

Recorded result, "CC1(C)CN(C(N)=O)c2ccc(F)c(F)c2N1Cc1ccc(COc2ccc(C(N)=O)cc2)cc1" , inhibition in vivo at 30 mg/kg: 58

Recorded result, "CC1(C)CN(C(N)=O)c2ccc(F)c(F)c2N1Cc1ccc(COc2ccc(CO)cc2)cc1" , inhibition in vivo at 30 mg/kg: 83

Sample "CC1(C)CN(C(N)=O)c2ccc(F)c(F)c2N1Cc1ccccc1" ; inhibition in vivo at 30 mg/kg observed: 71

* * *

assayed.target: AMP deaminase 2 (Homo sapiens)
test.description: Inhibition of recombinant human AMPD2 using AMP as substrate preincubated for 30 mins followed by substrate addition and measured after 30 mins by spectrophotometric analysis
measure.name: IC50 (nM)

CC1(C)CN(C(N)=O)c2cc(F)ccc2N1Cc1ccccc1 | 240
CC1(C)CN(C(N)=O)c2ccc(F)cc2N1Cc1ccccc1 | 1100
CC(=O)N1CC(C)(C)N(Cc2ccccc2)c2ccccc21 | 41000

A. CC1(C)CN(C(N)=O)c2ccccc2N1Cc1ccccc1
B. CC1(C)CN(C(N)=O)c2ccccc2N1Cc1cccc(OC(F)(F)F)c1
C. CC1(C)CN(C(N)=O)c2ccccc2N1Cc1ccc(CCc2ccccc2)cc1
D. CC1(C)CN(C(N)=O)c2ccccc2N1Cc1ccccc1Cl
E. CC1(C)CN(C(N)=O)c2cccc(F)c2N1Cc1ccccc1
Input line: Please put the entries in order of rising IC50. Answer by listing the labels in the order asked for.
Output line: E, B, A, C, D
(E: 30 nM, B: 140 nM, A: 270 nM, C: 410 nM, D: 12000 nM)

P. CC1(C)CN(C(N)=O)c2ccccc2N1Cc1ccc(OC(F)(F)F)cc1
Q. CC1(C)CN(C(N)=O)c2c(F)cccc2N1Cc1ccccc1
R. CC1(C)CN(C(N)=O)c2cccc(Cl)c2N1Cc1ccccc1
Input line: // ranking: key=IC50, reverse=True Output spec: labels arranged per the requested ranking.
Output line: Q, P, R
